Biological target: SARS-CoV full length Spike protein, wild type, expressed on CHO cells (SARS-CoV, UniProt P59594 14-1255)
Values of median fluorescence intensity, fold over isotype control strictly less than 0.9 fold over isotype map to met, and values of at least 0.9 fold over isotype map to not met.

| binder | classification |
| --- | --- |
| anti-SARS-CoV-2 antibody 1444 (antibody, V domains shown) VH: QVQLVQSGAEVKKPGASVKVSCKASGYTFTAYYMHWVRQAPGQGLEWMGWINPNSDDTNYAQKFQGRVTMTRDTSISTAYMELSRLRSDDTAVYYCAREEGVFTIGDRYFDLWGRGTLVSVSS VL: QTVVTQEPSFSVSPGGTVTLTCGLSSGSVSTSYYPSWYQQTPGQAPRTLIYNTNTRSSGVPDRFSGSILGNKAALTITGAQADDESDYYCVLYMGSGIWVFGGGTKLTVLG | met |
| anti-SARS-CoV-2 antibody 1075 (antibody, V domains shown) VH: QVQLVQSGAEVKKPGASVKVSCKVSGYTLIELSMHWVRQAPGKGLEWMGGFDPEDGETIYAQKFQGRVTMTEDTSTDTAYMELSSLRSEDTAVYYCATEWAYYGSGSYLGYWGQGTLVTVSS VL: EIVMTQSPATLSVSPGERATLSCRASQSVSSNLAWFQQKPGQAPRLLIYGASTRVTVIPARFSGSGSGTEFTLTISSLQSEDFAVYYCQQYNNWPRTFGQGTKVEIKR | met |
| anti-SARS-CoV-2 antibody 923 (antibody, V domains shown) VH: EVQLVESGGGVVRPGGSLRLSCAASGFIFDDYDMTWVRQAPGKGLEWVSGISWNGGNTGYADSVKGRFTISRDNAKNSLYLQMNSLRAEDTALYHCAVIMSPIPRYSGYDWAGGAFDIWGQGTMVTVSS VL: SSELTQDPAVSVALGQTVRITCQGDSLRSYYASWYQQKPGQVPILVIYDKNNRPSGIPDRFSGSSSGNTASLTITGAQAEDEADYYCNSRDSSGNAVVFGGGTKLTVLG | not met |
| anti-SARS-CoV-2 antibody 1495 (antibody, V domains shown) VH: QVQLVESGGGVVQPGRSLRLSCTASGFTFSSYAMHWVRQAPGKGLEWVAVISYDGNNKYYGDSVKGRFTISRDNSKNTLYLQMNSLRAEDTAVYYCAKGADTPHYSGYHFLSVGYYFYGMDVWGQGTTVTVSS VL: DIQMTQSPSSLSASVGDRVTITCRASQSISYYLNWYQQKPGKAPQLLIYAASSLQSGVPSRFSGSRSGTDFTLTISSLQPEDFATYYCQQSYSTPFTFGPGTKVDIKR | met |

Source listed as patent US20220356229A1.
